experimentalSystem: T1, human CD1b expressed on HEK-293 cells (human, UniProt P29016 18-333; P61769 21-119)
T1 construct: also called HEK - CD1b
protocolDetails: flow cytometry, HEK-293 cells, 31.6 µg/ml antibody
Readings of Fluorescence Intensity Geomean (normalized to background) for the listed binders
Quick reminder: number only, in fold over background, skip the unit.

Look over these answered cases.
111 (VR12113) (antibody, V domains shown, also called OX111) VH: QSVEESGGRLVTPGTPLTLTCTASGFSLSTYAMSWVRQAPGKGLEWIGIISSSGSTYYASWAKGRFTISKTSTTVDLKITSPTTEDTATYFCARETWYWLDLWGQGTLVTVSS VL: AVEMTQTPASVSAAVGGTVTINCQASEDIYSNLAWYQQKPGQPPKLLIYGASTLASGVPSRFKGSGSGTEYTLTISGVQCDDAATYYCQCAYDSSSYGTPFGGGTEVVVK    1
116 (VR12117) (antibody, V domains shown, also called OX116) VH: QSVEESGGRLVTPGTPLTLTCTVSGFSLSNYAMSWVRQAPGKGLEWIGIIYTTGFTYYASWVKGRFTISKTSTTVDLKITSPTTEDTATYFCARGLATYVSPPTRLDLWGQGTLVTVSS VL: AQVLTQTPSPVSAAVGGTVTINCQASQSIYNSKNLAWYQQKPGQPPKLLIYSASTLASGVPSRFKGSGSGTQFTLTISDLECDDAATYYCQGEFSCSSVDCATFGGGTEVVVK    1
77A (VR11851) (antibody, V domains shown, also called OX77a; antibody 77a) VH: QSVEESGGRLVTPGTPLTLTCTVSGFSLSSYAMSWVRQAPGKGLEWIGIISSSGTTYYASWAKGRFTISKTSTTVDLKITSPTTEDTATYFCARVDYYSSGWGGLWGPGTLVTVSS VL: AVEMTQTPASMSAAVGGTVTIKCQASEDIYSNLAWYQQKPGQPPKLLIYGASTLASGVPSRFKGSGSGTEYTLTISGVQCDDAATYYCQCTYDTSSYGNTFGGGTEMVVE    1

Let us move to another entry and its Fluorescence Intensity Geomean (normalized to background).
Inquiry: For the binder 110 (VR12112) (antibody, V domains shown, also called OX110; antibody 110) VH: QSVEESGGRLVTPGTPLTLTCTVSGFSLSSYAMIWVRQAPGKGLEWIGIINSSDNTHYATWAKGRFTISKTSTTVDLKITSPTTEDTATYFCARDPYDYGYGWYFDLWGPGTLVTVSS VL: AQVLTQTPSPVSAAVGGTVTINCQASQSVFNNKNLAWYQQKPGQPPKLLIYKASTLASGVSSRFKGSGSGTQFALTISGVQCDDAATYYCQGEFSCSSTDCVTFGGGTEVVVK , what Fluorescence Intensity Geomean (normalized to background) is on record?
Reply text: 1.1

Reference source for all entries: patent US20250289893A1
